# TESTED_TARGET: Recombinant Human Anaplastic Lymphoma Kinase (Homo sapiens)
# Construct: purchased Invitrogen, Carlsbad, Calif
# Sequence (Q9UM73 19-1620): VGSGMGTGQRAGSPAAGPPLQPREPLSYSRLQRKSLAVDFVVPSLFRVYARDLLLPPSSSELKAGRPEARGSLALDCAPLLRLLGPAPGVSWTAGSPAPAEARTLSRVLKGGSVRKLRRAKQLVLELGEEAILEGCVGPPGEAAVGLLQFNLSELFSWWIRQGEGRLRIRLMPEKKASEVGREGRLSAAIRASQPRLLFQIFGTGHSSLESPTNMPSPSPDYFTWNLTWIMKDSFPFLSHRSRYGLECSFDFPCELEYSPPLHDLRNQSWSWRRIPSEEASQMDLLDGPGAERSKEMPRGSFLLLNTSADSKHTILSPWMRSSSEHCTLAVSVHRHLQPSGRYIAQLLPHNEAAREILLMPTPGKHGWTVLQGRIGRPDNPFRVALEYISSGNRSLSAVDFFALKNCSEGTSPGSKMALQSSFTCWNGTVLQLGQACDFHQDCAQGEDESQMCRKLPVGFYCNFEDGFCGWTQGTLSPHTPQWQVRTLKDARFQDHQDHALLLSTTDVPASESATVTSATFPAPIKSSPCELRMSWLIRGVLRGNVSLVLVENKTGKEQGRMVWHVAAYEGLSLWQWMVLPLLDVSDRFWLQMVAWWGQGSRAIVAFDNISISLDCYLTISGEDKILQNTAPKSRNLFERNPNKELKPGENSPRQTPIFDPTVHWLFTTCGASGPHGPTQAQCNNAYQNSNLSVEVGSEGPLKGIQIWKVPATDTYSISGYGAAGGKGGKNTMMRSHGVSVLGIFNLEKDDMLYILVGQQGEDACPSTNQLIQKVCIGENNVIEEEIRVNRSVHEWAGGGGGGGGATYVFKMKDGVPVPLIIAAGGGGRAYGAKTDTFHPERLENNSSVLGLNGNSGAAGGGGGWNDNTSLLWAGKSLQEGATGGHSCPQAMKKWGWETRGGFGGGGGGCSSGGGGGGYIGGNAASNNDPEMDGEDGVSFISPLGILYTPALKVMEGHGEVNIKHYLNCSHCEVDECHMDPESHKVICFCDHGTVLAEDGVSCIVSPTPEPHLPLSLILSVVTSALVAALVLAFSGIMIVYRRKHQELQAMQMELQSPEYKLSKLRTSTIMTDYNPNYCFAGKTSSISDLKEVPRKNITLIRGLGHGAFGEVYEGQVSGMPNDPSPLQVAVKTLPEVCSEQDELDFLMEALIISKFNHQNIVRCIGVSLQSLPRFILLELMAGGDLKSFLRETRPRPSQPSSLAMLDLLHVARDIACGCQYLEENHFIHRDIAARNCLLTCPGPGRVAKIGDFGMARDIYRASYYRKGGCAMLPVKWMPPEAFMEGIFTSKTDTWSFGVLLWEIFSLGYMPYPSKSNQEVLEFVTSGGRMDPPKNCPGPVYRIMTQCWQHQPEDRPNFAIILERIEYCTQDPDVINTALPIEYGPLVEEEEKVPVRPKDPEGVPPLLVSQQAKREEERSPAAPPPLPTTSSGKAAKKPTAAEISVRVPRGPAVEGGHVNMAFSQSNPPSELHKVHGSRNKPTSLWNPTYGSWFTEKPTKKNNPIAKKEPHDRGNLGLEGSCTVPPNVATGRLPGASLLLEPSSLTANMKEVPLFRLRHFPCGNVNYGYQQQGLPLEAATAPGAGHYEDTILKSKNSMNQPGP
# EXPERIMENTAL_PROTOCOL: ALK HTRF kinase assay
# Assay type: biochemical
# PARTICULARS: compound at 500 nM or 1 mM; 90 μM ATP
Where a name gives a salt, the structure may show the parent alone.
Answer F if ALK % of inhibition at a concentration of 500 nM or 1 mM is under 30%, and T if it is 30% or more.

Is reported ALK % of inhibition at a concentration of 500 nM or 1 mM greater than or equal to 30% here: O=C(CC1CCN(S(=O)(=O)c2cccnc2)CC1)Nc1ccc2cc1CCc1cccc(c1)Nc1ncc(Cl)c(n1)N2 [Example A212, bis(trifluoroacetate)]
T

Is reported ALK % of inhibition at a concentration of 500 nM or 1 mM greater than or equal to 30% here: Cn1ccnc1C(=O)N1CCC(CC(=O)Nc2ccc3cc2CCc2cncc(c2)Nc2ncc(Cl)c(n2)N3)CC1 [Example A164, bis(trifluoroacetate)]
F

Is reported ALK % of inhibition at a concentration of 500 nM or 1 mM greater than or equal to 30% here: O=C(CC1CCN(C(=O)Nc2ccccc2)CC1)Nc1ccc2cc1CCc1cccc(c1)Nc1ncc(Cl)c(n1)N2 [Example A58, trifluoroacetate]
T

Is reported ALK % of inhibition at a concentration of 500 nM or 1 mM greater than or equal to 30% here: O=C(CC1CCNC1)Nc1ccc2cc1CCc1cncc(c1)Nc1ncc(Cl)c(n1)N2 (stereo not shown) [Example A105, tris(trifluoroacetate)]
F

Is reported ALK % of inhibition at a concentration of 500 nM or 1 mM greater than or equal to 30% here: O=C(CC1CCN(C(=O)c2cnon2)CC1)Nc1ccc2cc1CCc1cncc(c1)Nc1ncc(Cl)c(n1)N2 [Example A138, bis(trifluoroacetate)]
T

Is reported ALK % of inhibition at a concentration of 500 nM or 1 mM greater than or equal to 30% here: O=C(COc1ccc2cc1CCc1cccc(c1)Nc1ncc(Cl)c(n1)N2)Nc1ccccc1 [Example A18, trifluoroacetate]
T

Is reported ALK % of inhibition at a concentration of 500 nM or 1 mM greater than or equal to 30% here: Cc1noc(C)c1C(=O)N1CCC(CC(=O)Nc2ccc3cc2CCc2cncc(c2)Nc2ncc(Cl)c(n2)N3)CC1 [Example A156, bis(trifluoroacetate)]
F

Is reported ALK % of inhibition at a concentration of 500 nM or 1 mM greater than or equal to 30% here: O=C(CC1CCN(C(=O)c2ccc(F)cc2)CC1)Nc1ccc2cc1CCc1cccc(c1)Nc1ncc(Cl)c(n1)N2 [Example A203, trifluoroacetate]
T

Is reported ALK % of inhibition at a concentration of 500 nM or 1 mM greater than or equal to 30% here: Cc1nccc(N2CCC(CC(=O)Nc3ccc4cc3CCc3cncc(c3)Nc3ncc(Cl)c(n3)N4)CC2)n1 [Example A182, tris(trifluoroacetate)]
T

Is reported ALK % of inhibition at a concentration of 500 nM or 1 mM greater than or equal to 30% here: O=C(CC1CCN(c2ccncc2F)CC1)Nc1ccc2cc1CCc1cncc(c1)Nc1ncc(Cl)c(n1)N2 [Example A243, tris(trifluoroacetate)]
T

Is reported ALK % of inhibition at a concentration of 500 nM or 1 mM greater than or equal to 30% here: CC(C)C(=O)N1CCC(CC(=O)Nc2ccc3cc2CCc2cncc(c2)Nc2ncc(Cl)c(n2)N3)CC1 [Example A103, bis(trifluoroacetate)]
F

Is reported ALK % of inhibition at a concentration of 500 nM or 1 mM greater than or equal to 30% here: O=C(CCC1CCNCC1)Nc1ccc2cc1CCc1cncc(c1)Nc1ncc(Cl)c(n1)N2
F

Is reported ALK % of inhibition at a concentration of 500 nM or 1 mM greater than or equal to 30% here: O=C(CC1CCN(C(=O)c2ccc(F)cc2)CC1)Nc1ccc2cc1CCc1cncc(c1)Nc1ncc(Cl)c(n1)N2 [Example A193, bis(trifluoroacetate)]
T

Is reported ALK % of inhibition at a concentration of 500 nM or 1 mM greater than or equal to 30% here: N#Cc1ccccc1NC(=O)N1CCC(CC(=O)Nc2ccc3cc2CCc2cncc(c2)Nc2ncc(Cl)c(n2)N3)CC1 [Example A141, bis(trifluoroacetate)]
F

Is reported ALK % of inhibition at a concentration of 500 nM or 1 mM greater than or equal to 30% here: O=C(Nc1ccc2cc1CCc1cccc(c1)Nc1ncc(Cl)c(n1)N2)C1CCCN(C(=O)Nc2ccccc2)C1 (stereo not shown) [Example A50, trifluoroacetate]
T

Is reported ALK % of inhibition at a concentration of 500 nM or 1 mM greater than or equal to 30% here: O=C(CC1CCN(c2nncs2)CC1)Nc1ccc2cc1CCc1cccc(c1)Nc1ncc(Cl)c(n1)N2 [Example A183, bis(trifluoroacetate)]
T
